Each recorded value in this set is attributed to the supplement of paper PMC4862054.

- System: HCC1143
- Assay info: normalised viability (% of control), CellTiter-Blue; higher = more viable cells (100 = DMSO, 0 = benzethonium chloride kill control)
- Run conditions: 1 nM; incubation time: 72 h
In plain terms, low normalised viability, meaning strictly below 90%, gives rule met, and everything else gives rule not met.

- Structure smiles string: "C[C@H]1C[C@@H]2[C@H]([C@@H](O)C[C@@]3(C)[C@H]2CC[C@]3(O)C(=O)CO)[C@@]2(C)C=CC(=O)C=C12"
  Assigned category: "rule not met"

Q: Below 90% on normalised viability? Entry `CCc1cncnc1N1CCN(Cc2nc3ccc(C(F)(F)F)cc3[nH]2)CC1`
Result: rule not met

Q: Below 90% on normalised viability? Entry `C1CN1c1nc(N2CC2)nc(N2CC2)n1`
Result: rule not met

Q: Below 90% on normalised viability? Entry `CCCS(=O)(=O)Nc1ccc(F)c(C(=O)c2c[nH]c3ncc(-c4ccc(Cl)cc4)cc23)c1F`
Result: rule not met

Q: Below 90% on normalised viability? Entry `CC[C@H](Nc1ncnc2[nH]cnc12)c1nc2cccc(F)c2c(=O)n1-c1ccccc1`
Result: rule not met

Q: Below 90% on normalised viability? Entry `N#Cc1ccc(C(c2ccc(C#N)cc2)n2cncn2)cc1`
Result: rule met

Q: Below 90% on normalised viability? Entry `CCCCC(=O)OCC(=O)[C@]1(O)Cc2c(O)c3c(c(O)c2[C@@H](O[C@H]2C[C@H](NC(=O)C(F)(F)F)[C@H](O)[C@H](C)O2)C1)C(=O)c1c(OC)cccc1C3=O`
Result: rule met

----------
- Test system: CAL-85-1
- Run conditions: 72 h
Can you tell me EC50, CellTiter-Glo for the items I'm about to list?
Numbers only, in nM.

Past entries and their recorded results:
- Compound: "COc1cc2c(NC3CCN(C(C)C)CC3)nc(C3CCCCC3)nc2cc1OCCCN1CCCC1 [UNC0638]"
  Endpoint unit: "nM"
  EC50, CellTiter-Glo: 3520
- Compound: "CC[C@@H]1C(=O)N(C)c2cnc(Nc3ccc(C(=O)NC4CCN(C)CC4)cc3OC)nc2N1C1CCCC1 [BI 2536]"
  Endpoint unit: "nM"
  EC50, CellTiter-Glo: 2.42

// moving on: another record for EC50, CellTiter-Glo
Q: Specify EC50, CellTiter-Glo for C=CC(=O)Nc1cc2c(Nc3ccc(F)c(Cl)c3)ncnc2cc1OCCCN1CCOCC1 [Canertinib] , system CAL-85-1.
Result: 595

----------
Can you tell me normalised response for the items I'm about to list?
- Test system: CAL-51
- Assay info: normalised response (% of control), CellTiter-Glo; higher = more viable cells (100 = DMSO, 0 = benzethonium chloride kill control)
- Run conditions: incubation time: 72 h
Numbers only, in %.

- Compound: "CCCS(=O)(=O)Nc1ccc(F)c(C(=O)c2c[nH]c3ncc(-c4ccc(Cl)cc4)cc23)c1F [Vemurafenib] (10000 nM)"
  Endpoint: "normalised response"
  Endpoint unit: "%"
  Recorded number: 78.4

Give me normalised response for each of these compounds, listed below.
1. O=C(Cc1ccc(-c2ccc(OCCN3CCOCC3)cc2)cn1)NCc1ccccc1 [KX2-391] (10000 nM)
2. C=CC(=O)N1CCC[C@@H](n2nc(-c3ccc(Oc4ccccc4)cc3)c3c(N)ncnc32)C1 [Ibrutinib] (1000 nM)
3. COc1cc2c(Oc3ccc4[nH]c(C)cc4c3F)ncnc2cc1OCCCN1CCCC1 [Cediranib] (1000 nM)
4. C[C@H]1C[C@@H]2[C@H]([C@@H](O)C[C@@]3(C)[C@H]2CC[C@]3(O)C(=O)CO)[C@@]2(C)C=CC(=O)C=C12 [Methylprednisolone] (10000 nM)
5. O=C(O)C(=O)O.[NH-][C@@H]1CCCC[C@H]1[NH-].[Pt+2] [Oxaliplatin] (10000 nM)

Result:
1. 25.6
2. 85.7
3. 128
4. 130
5. 91.5

Give me normalised response for each of these compounds, listed below.
1. CC1=C(/C=C/C(C)=C/C=C/C(C)=C/C(=O)O)C(C)(C)CCC1 [Tretinoin] (10000 nM)
2. Nc1ccccc1NC(=O)c1ccc(CNC(=O)OCc2cccnc2)cc1 [Entinostat] (10000 nM)
3. COc1cc2c(NC3CCN(C(C)C)CC3)nc(C3CCCCC3)nc2cc1OCCCN1CCCC1 [UNC0638] (10000 nM)
4. COc1cc([C@@H]2c3cc4c(cc3[C@@H](O[C@@H]3O[C@@H]5CO[C@@H](c6cccs6)O[C@H]5[C@H](O)[C@H]3O)[C@H]3COC(=O)[C@H]23)OCO4)cc(OC)c1O [Teniposide] (10000 nM)

Result:
1. 86.2
2. 31.8
3. 17
4. 14
